Molecular target: cynomolgus LIV-1 (cynomolgus, UniProt A0A2K5WH46 30-741)
Sequence (A0A2K5WH46 entry or part of it): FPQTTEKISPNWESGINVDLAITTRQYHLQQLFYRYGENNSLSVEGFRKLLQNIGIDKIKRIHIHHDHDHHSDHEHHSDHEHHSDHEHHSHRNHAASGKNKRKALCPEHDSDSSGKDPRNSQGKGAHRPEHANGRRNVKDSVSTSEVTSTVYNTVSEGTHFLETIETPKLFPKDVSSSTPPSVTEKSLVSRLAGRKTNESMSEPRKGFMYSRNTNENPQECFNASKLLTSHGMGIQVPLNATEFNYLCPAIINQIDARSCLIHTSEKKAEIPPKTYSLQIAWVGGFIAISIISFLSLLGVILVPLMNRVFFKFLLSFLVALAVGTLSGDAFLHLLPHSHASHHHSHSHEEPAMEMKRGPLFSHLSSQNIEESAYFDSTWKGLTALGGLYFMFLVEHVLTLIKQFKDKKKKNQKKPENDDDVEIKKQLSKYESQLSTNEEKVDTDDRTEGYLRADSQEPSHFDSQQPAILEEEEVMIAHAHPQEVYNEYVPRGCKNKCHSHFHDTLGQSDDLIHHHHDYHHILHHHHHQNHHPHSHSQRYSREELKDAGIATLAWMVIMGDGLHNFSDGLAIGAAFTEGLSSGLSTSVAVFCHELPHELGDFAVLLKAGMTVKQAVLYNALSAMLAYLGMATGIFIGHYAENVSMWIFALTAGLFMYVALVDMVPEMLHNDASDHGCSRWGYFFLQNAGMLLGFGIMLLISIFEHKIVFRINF
Assay: FACS, cyno LIV-1 cells
Recorded endpoint: Top (MFI)

Binder	Experimental result
290F10G10.p1.Z6 (antibody, V domains shown) VH: EVQLVQSGAEVKKPGASVKVSCKASGYTFTSYWIHWVRQAPGQGLEWMGTIYPGDADTRSTQKFKDRVTVTADKSTSTVYMELSSLRSEDTAVYYCARSLIHDDYDKYYFDYWGQGTTVTVSS VL: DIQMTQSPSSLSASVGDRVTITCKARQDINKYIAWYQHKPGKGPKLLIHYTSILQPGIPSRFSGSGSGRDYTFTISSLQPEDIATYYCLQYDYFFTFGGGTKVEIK	6890
290F10G10.p1.Z7 (antibody, V domains shown) VH: EVQLVQSGAEVKKPGASVKVSCKASGYTFTSYWIHWVRQAPGQGLEWIGTIYPGDADTRSTQKFKDKATVTADKSTSTVYMELSSLRSEDTAVYYCARSLIHDDYDKYYFDYWGQGTTVTVSS VL: DIQMTQSPSSLSASVGDRVTITCKARQDINKYIAWYQQKPGKAPKLLIYYTSILQPGVPSRFSGSGSGRDYTFTISSLQPEDIATYYCLQYDYFFTFGGGTKVEIK	7150
290F10G10.p1.Z3 (antibody, V domains shown) VH: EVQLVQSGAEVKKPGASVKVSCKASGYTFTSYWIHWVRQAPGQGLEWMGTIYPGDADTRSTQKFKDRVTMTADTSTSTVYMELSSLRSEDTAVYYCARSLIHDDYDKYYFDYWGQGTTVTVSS VL: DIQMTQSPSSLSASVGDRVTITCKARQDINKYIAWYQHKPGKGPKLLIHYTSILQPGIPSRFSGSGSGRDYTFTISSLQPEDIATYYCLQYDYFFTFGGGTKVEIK	6750
290F10G10.p1.Z10 (antibody, V domains shown) VH: EVQLVQSGAEVKKPGASVKVSCKASGYTFTSYWIHWVRQAPGQGLEWMGTIYPGDADTRSTQKFKDRVTVTADKSTSTVYMELSSLRSEDTAVYYCTRSLIHDDYDKYYFDYWGQGTTVTVSS VL: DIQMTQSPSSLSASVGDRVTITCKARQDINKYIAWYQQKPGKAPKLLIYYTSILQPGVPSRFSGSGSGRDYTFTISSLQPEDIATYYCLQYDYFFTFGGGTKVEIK	6740
290F10G10.p1.Z1 (antibody, V domains shown) VH: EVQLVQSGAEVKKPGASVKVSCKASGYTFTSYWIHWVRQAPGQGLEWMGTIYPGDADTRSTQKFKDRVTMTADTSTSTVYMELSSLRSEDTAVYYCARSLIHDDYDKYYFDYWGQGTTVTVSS VL: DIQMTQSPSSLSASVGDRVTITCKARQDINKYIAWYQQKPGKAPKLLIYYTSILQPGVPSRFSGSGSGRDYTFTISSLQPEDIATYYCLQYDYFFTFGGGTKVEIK	7190
